# TEST TARGET: UniProt Q61143
# PROTOCOL DETAILS: TRPC6 inhibitor potency, dose response, cell-based, mouse TRPC6, HEK293, membrane potential (AID 2696)
# CONDITION CONTEXT: TRPC6-expressing HEK293 cells, membrane potential dye fluorescence, acetylcholine-stimulated
PROPERTY LABEL: pIC50
pIC50 field: float, defined as -log10 of concentration (mol/L).

INSERT INTO measurements (compound, recorded_measurement) VALUES
  ('OC(C#CCN1CCCCC1)(c1ccccc1)c1ccccc1', 5.95),
  ('CCN(CC)CCOC(=O)C1c2ccccc2Oc2ccccc21', 5.75),
  ('Cc1ccccc1CCNCc1cc2cccc(C)c2[nH]c1=O', 4.30),
  ('Cc1cccc2sc(N(CCCN(C)C)C(=O)c3ccco3)nc12', 4.15),
  ('NCCCC(=O)N1c2ccccc2Sc2ccccc21', 4.35),
  ('C[N+]1(C)CCCC(OC(=O)C(O)(c2ccccc2)c2ccccc2)C1 (configuration not stated)', 6.05),
  ('Nc1c2c(nc3ccccc13)N(C1CCCCC1)CC2', 4.15),
  ('C[N+](C)(C)C/C=C1/COCO1', 4.95);

Reported pIC50 for CC(C)(C)c1ccc(OCCCCCCN2CCNCC2)cc1 : what is it?
4.30

Recorded pIC50 for CN1CCCN=C1COC(=O)C(O)(c1ccccc1)C1CCCCC1 (configuration not stated) , please?
7.30

Look up pIC50: C[N+]1(C)C2CCC1CC(OC(=O)C(CO)c1ccccc1)C2 (configuration not stated)
7.15

Look at this compound and give its reported pIC50. c1ccc(Cn2c(-c3ccccc3)c[n+]3c2SCCC3)cc1
5.40

* * *

Catalogue of pIC50 readings, one per entry.
# TEST TARGET: Short transient receptor potential channel 6 (Mus musculus) (UniProt Q61143)
# Sequence (Q61143 whole entry, looked up): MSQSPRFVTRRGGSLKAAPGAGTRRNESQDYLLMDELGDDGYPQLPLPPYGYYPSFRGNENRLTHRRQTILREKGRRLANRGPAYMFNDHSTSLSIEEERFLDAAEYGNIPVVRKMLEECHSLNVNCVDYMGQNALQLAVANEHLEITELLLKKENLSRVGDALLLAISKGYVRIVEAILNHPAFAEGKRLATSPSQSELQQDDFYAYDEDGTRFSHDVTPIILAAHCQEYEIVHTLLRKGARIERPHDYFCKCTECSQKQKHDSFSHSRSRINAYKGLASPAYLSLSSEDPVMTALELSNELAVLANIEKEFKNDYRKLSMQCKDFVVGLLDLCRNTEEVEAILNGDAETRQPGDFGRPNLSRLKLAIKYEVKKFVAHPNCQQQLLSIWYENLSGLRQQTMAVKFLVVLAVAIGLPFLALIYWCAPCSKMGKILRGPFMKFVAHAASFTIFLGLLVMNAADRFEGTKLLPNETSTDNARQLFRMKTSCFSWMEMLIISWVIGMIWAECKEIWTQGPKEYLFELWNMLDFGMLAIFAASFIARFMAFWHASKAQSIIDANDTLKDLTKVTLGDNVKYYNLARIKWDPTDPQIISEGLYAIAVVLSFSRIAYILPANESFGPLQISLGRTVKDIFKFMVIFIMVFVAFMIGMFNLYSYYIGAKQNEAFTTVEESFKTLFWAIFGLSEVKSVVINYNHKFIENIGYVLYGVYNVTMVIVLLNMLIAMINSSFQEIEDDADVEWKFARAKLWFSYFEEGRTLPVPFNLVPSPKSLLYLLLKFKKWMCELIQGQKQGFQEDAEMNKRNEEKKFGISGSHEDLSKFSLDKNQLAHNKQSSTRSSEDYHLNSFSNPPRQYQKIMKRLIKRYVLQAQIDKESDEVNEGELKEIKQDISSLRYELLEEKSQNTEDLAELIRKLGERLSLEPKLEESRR
# PROTOCOL DETAILS: TRPC6 inhibitor potency, dose response, cell-based, mouse TRPC6, HEK293, membrane potential (AID 2696)
# CONDITION CONTEXT: TRPC6-expressing HEK293 cells, membrane potential dye fluorescence, acetylcholine-stimulated
Entry type: numeric. Quantity: pIC50, the -log10 of concentration in molar units.

INSERT INTO assay_data (compound, recorded_measurement) VALUES
  ('CCOCCN1CCN(C2c3ccccc3CSc3ccccc32)CC1 (stereo unspecified)', 4.30),
  ('O=c1cc(C(F)(F)F)[nH]c2c(C(F)(F)F)cccc12', 4.60),
  ('Cc1onc(-c2c(F)cccc2Cl)c1C(=O)NC(=S)Nc1c(C)n(C)n(-c2ccccc2)c1=O', 4.40),
  ('C#CC[N+]1(C)[C@@H]2CC(OC(=O)C(CO)c3ccccc3)C[C@H]1C(O)C2 (stereo partly specified)', 5.45),
  ('C[N+](C)(C)CCOC(=O)C1(c2ccccc2)CCCC1', 5.05),
  ('C[n+]1ccc(/C=N/Nc2nc(Cl)c(C#N)c(Cl)c2Cl)cc1', 4.40);

Report pIC50 for COc1cccc(Nc2nc(NCCO)c3ccccc3n2)c1 please.
4.20

// lookup pIC50 for CCC(C)N(CCNC(=O)CC1Oc2ccccc2NC1=O)C1CCCCC1 (stereo unspecified)
4.55

I would be grateful if you could share the reported pIC50 for Cc1cccc[n+]1CC(=O)N1c2ccccc2Sc2ccccc21 .
5.35

# get_value(readout='pIC50', item= COc1ccccc1OCCNCC(O)COc1cccc2[nH]c3ccccc3c12 (stereo unspecified) )
4.35

Which pIC50 is reported for this compound? CCOC(=O)c1ccc(NC(=O)CC2COc3ccccc3O2)cc1 (stereo unspecified)
4.20
